B1: Homeobox protein cut-like 1, residues 941 to 1008; numbered along this chain, P39880 (parent)
chain: QEVDTIELTRQVKEKLAKNGICQRIFGEKVLGLSQGSVSDMLSRPKPWSKLTQKGREPFIRMQLWLNG

# Variants of: B1
# Test method notes: abundance fitness (aPCA) (normalised: wild type 0, dead -1); higher = more abundant; growth selection in yeast, the domain comes from the species named
# Assay context: Homo sapiens
Reported endpoint: abundance fitness
Field format: numeric only.

Look over these answered cases.
K15A	-0.147
S39D	-0.04
V30P	0.123
K50W	-0.247
I6C	-0.091

Prompt line: Would you mind telling me what abundance fitness value was observed for P45F ?
Response line: -0.161

Prompt line: Would you mind telling me what abundance fitness value was observed for L42H ?
Response line: -0.184

Prompt line: Would you mind telling me what abundance fitness value was observed for T5E ?
Response line: -0.204

Value source: the Human Domainome abundance scans (Beltran et al. 2025)
